# Target: RAC-alpha serine/threonine-protein kinase [139-480,S378A,S381A,T450D,S473D] (Homo sapiens, UniProt P31749, S378A/S381A/S473D/T450D)
# Construct: 139-480
# Sequence (P31749 139-480 S378A/S381A/T450D/S473D): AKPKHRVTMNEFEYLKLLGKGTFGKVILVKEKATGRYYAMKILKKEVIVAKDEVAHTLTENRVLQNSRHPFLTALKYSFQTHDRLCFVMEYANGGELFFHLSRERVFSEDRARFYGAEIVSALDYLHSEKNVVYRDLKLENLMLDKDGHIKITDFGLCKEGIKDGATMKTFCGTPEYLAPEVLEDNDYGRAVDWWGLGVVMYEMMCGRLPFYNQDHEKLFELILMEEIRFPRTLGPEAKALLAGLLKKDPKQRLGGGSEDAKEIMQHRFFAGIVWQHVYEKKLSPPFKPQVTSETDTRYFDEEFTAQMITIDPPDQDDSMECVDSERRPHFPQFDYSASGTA
# Procedure text: Akt Kinase Assay
# Test context: pH 7.5; 22 °C
Property measured: IC50 (µM)
Write the number in µM without appending the unit.

C(=C\c1cncc(OC[C@@H]2CCN2)c1)/c1ccncc1 = 10.9
N[C@H](COc1cncc(/C=C/c2ccncc2)c1)Cc1cccc2ccccc12 = 0.324
N[C@H](COc1cncc(/C=C/c2ccncc2)c1)Cc1ccc2ccccc2c1 = 0.146
N#Cc1cccc(C[C@H](N)COc2cncc(/C=C/c3ccncc3)c2)c1 = 0.32
C(=C\c1cncc(OC[C@@H]2CCCN2)c1)/c1ccncc1 = 23.9
N[C@@H](CCc1ccccc1)COc1cncc(/C=C/c2ccncc2)c1 = 8.02
CC(C)[C@H](N)COc1cncc(/C=C/c2ccncc2)c1 = 19.3
N[C@H](COc1cncc(/C=C/c2ccncc2)c1)C(c1ccccc1)c1ccccc1 = 6.76

Turning to the following compound.
IC50 for N[C@H](COc1cncc(/C=C/c2ccncc2)c1)Cc1cccc(O)c1 ?
0.875

###

# Target: RAC-alpha serine/threonine-protein kinase [139-480,S378A,S381A,T450D,S473D] (Homo sapiens, UniProt P31749, S378A/S381A/S473D/T450D)
# Construct: 139-480
# Procedure text: Akt Kinase Assay
Property measured: pIC50
pIC50 field: float, defined as -log10 of concentration (mol/L).

// worked examples, pIC50 included
N[C@H](COc1cncc(/C=C/c2ccnc(NC3CC3)c2)c1)Cc1c[nH]c2ccccc12 = 7.16
CNc1cc(/C=C/c2cncc(OC[C@@H](N)Cc3c[nH]c4ccccc34)c2)ccn1 = 6.75
Cn1cc(C[C@H](N)COc2cncc(/C=C/c3ccncc3)c2)c2ccccc21 = 6.30
Nc1cc(/C=C/c2cncc(OC[C@@H](N)Cc3c[nH]c4ccccc34)c2)ccn1 = 6.92

Okay, next one:
I am curious: what pIC50 value has been reported for N[C@H](COc1ccc(/C=C/c2ccncc2)cn1)Cc1ccccc1 ?
4.37

###

# Target: RAC-alpha serine/threonine-protein kinase [139-480,S378A,S381A,T450D,S473D] (Homo sapiens, UniProt P31749, S378A/S381A/S473D/T450D)
# Construct: 139-480
# Procedure text: Akt Kinase Assay
Rule: IC50 below 20 nM gives MET. Equal to or above 20 nM gives NOT MET.

Please review the following examples before continuing.
N[C@H](COc1cnc(Cl)c(/C=C/c2ccncc2)c1)Cc1c[nH]c2ccccc12 = NOT MET
N[C@@H](Cc1ccccc1)C(=O)Nc1cncc(/C=C/c2ccncc2)c1 = NOT MET
Brc1ccc(/C=C/CNCCOc2cncc(/C=C/c3ccncc3)c2)cc1 = NOT MET

Determine if COc1cc(/C=C/c2cncc(OC[C@@H](N)Cc3c[nH]c4ccccc34)c2)ccn1 shows IC50 strictly lower than 20 nM.
NOT MET

# check: IC50 < 20 nM for N[C@H](CNc1cnc(Cl)c(/C=C/c2ccncc2)c1)Cc1c[nH]c2ccccc12
MET

###

# Target: RAC-alpha serine/threonine-protein kinase [139-480,S378A,S381A,T450D,S473D] (Homo sapiens, UniProt P31749, S378A/S381A/S473D/T450D)
# Construct: 139-480
# Procedure text: Akt Kinase Assay
Here, each record is paired with measured IC50 data.
Write your answer as a measured quantity: the number, then the unit.

# annotated cases, reported IC50 shown
N[C@H](CNc1cncc(/C=C/c2ccncc2)c1)Cc1c[nH]c2ccccc12 = 9.7 nM
N[C@H](COc1cncc(/C=C/c2ccnc(-n3ccc4ccccc43)c2)c1)Cc1c[nH]c2ccccc12 = 3340 nM

Return reported IC50; argument: N[C@H](COc1cncc(/C=C/c2ccnc(NCc3ccccc3)c2)c1)Cc1c[nH]c2ccccc12
147 nM

IC50 lookup needed for N[C@H](COc1cncc(/C=C/c2ccnc(SCc3ccccc3)c2)c1)Cc1c[nH]c2ccccc12 , thanks.
3110 nM

Which IC50 reading was recorded for the compound N[C@H](COc1cncc(/C=C/c2ccncc2)c1)Cc1csc2ccccc12 ?
142 nM

State the recorded IC50 for this entry: N[C@H](COc1cncc(/C=C/c2ccnc(Sc3ccccc3)c2)c1)Cc1c[nH]c2ccccc12
6350 nM

Name the reported IC50 value associated with the compound CCNc1cc(/C=C/c2cncc(OC[C@@H](N)Cc3c[nH]c4ccccc34)c2)ccn1
163 nM

Can you look up the measured IC50 of N[C@H](COc1cncc(/C=C/c2ccnc(Oc3ccccc3)c2)c1)Cc1c[nH]c2ccccc12 for me?
6450 nM

Recorded IC50 of N[C@H](CCc1cnc(Cl)c(/C=C/c2ccncc2)c1)Cc1c[nH]c2ccccc12 , please.
198 nM

Quick one: IC50 for NCC(c1ccccc1)c1cncc(/C=C/c2ccncc2)c1 (stereo not drawn) ?
284 nM

###

# Target: RAC-alpha serine/threonine-protein kinase [139-480,S378A,S381A,T450D,S473D] (Homo sapiens, UniProt P31749, S378A/S381A/S473D/T450D)
# Construct: 139-480
# Procedure text: Akt Kinase Assay
Property measured: IC50 (nM)
Enter your answer as a number in nM; do not include the unit.

CN(C)[C@H](COc1cncc(/C=C/c2ccncc2)c1)Cc1c[nH]c2ccccc12 = 1100
N[C@H](COc1cccc(/C=C/c2ccncc2)n1)Cc1c[nH]c2ccccc12 = 23300

Okay, now this compound:
# lookup: IC50 of N[C@H](CNc1cnc(Cl)c(/C=C/c2ccncc2)c1)CC1CNc2ccccc21 (stereo partly drawn)
79
